// provenance: the supplement of paper PMC12645437

Target: T1, CRBN, Q96SW2;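 note: pooled lentiviral library of zinc finger degron-EGFP fusions in mCherry-positive Jurkat cells, FACS-sorted after compound exposure, with degron abundance counted by next-generation sequencing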
T1 chain: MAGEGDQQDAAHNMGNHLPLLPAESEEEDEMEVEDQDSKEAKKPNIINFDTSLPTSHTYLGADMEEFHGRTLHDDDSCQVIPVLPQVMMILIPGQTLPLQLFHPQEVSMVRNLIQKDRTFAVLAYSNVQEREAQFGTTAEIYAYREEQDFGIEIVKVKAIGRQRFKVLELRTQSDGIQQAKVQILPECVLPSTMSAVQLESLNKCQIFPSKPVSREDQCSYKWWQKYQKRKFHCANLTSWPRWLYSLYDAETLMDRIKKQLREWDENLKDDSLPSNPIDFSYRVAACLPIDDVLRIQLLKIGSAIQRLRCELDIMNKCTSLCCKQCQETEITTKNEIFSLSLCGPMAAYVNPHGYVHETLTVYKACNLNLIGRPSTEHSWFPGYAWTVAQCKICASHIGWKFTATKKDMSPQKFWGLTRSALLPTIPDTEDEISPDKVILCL
Test: log2 fold change of degron read counts, EGFP-low vs EGFP+ sorted cells (limma voom), compound-induced degradation; higher = more compound-induced degradation of the degron-EGFP fusion; degrons are variants of IKZF1/3 zinc finger 2; compound dose not given here
Settings: Jurkat; 18 h; compound: thalidomide
Over roughly 8,300 sequences, “log2 fold change of degron read counts, EGFP-low vs EGFP+ sorted cells (limma voom), compound-induced degradation” has its median near -1.1; the highest 2% begin near 3.2. The list comes from a sample in which the highest values are over-represented; it also holds close analogues and randomly drawn sequences.
PARAMETER: log2 fold change of degron read counts
Kindly provide the number alone.

Some entries whose results are on file:
>  <INPUT SEQUENCE>
FECEICGHGFTQKGNLLRHIKL [46F_47E_49E_50I_52G_53H_54G_55F_67L_, Q9UKT9]

>  <log2 fold change of degron read counts>
-2.45

$$$$
>  <INPUT SEQUENCE>
LWCPICGFFCTQKGNLLRHIKL [46L_47W_49P_50I_52G_53F_54F_55C_67L_, Q9UKT9]

>  <log2 fold change of degron read counts>
2.05

$$$$
>  <INPUT SEQUENCE>
LCCPICGFFCTQKGNLLRHIKL [46L_47C_49P_50I_52G_53F_54F_55C_67L_, Q9UKT9]

>  <log2 fold change of degron read counts>
2.39

$$$$
>  <INPUT SEQUENCE>
FKCPICGRFFTQKGNLLRHIKL [46F_47K_49P_50I_52G_53R_54F_55F_67L_, Q9UKT9]

>  <log2 fold change of degron read counts>
-1.32

$$$$
>  <INPUT SEQUENCE>
FRCPICGAVFTQKGNLLRHIKL [46F_47R_49P_50I_52G_53A_54V_55F_67L_, Q9UKT9]

>  <log2 fold change of degron read counts>
1.37

$$$$

Query: Identify log2 fold change of degron read counts associated with the sequence LACPICGFFCTQKGNLLRHIKL [46L_47A_49P_50I_52G_53F_54F_55C_67L_, Q9UKT9]
Reply: 2.24

Query: Identify log2 fold change of degron read counts associated with the sequence FICEICGRMFTQKGNLLRHIKL [46F_47I_49E_50I_52G_53R_54M_55F_67L_, Q9UKT9]
Reply: -0.738
